Some compounds, each annotated with its measured IC50.
Target: CDK2 (Homo sapiens, UniProt P24941)
Construct: High-Throughput Measurement of Cellular Endogenous CDK2; endogenous in cells
Test: Inhibition of CDK2: phospho-Rb (S807/811) HTRF measurement in OVCAR3 cells, 24 h
Conditions: 24 h compound treatment, read-out: pRB_OVCAR3_24h

Cn1nc(N2CCC(=O)NC2=O)c2ccc(C3CCN(Cc4cccc(C#Cc5cccc(S(=O)(=O)N6CCC(Nc7ncc(C(F)(F)F)cn7)CC6)c5)c4)CC3)cc21	100 to 500 nM
O=C1CCC(N2Cc3cc(N4CCC(Oc5cccc(S(=O)(=O)N6CCC(Nc7ncc(C(F)(F)F)cn7)CC6)c5)CC4)ccc3C2=O)C(=O)N1 (centres unmarked)	100 to 500 nM
Cn1cc(-c2cnc(NC3CCN(S(=O)(=O)c4cccc(N5CCC(CN6CCC(c7ccc8c(N9CCC(=O)NC9=O)nn(C)c8c7)CC6)CC5)c4)CC3)nc2)cn1	> 2500 nM
C=Cc1cnc(NC2CCN(S(=O)(=O)c3cccc(N4CCC(CN5CCC(c6ccc7c(N8CCC(=O)NC8=O)nn(C)c7c6)CC5)CC4)c3)CC2)nc1	1 to 100 nM
O=C1CCC(N2Cc3cc(N4CCN(Cc5cccc(S(=O)(=O)N6CCC(Nc7ncc(C(F)(F)F)cn7)CC6)c5)CC4)c(F)cc3C2=O)C(=O)N1 (centres unmarked)	1 to 100 nM
Cn1nc(N2CCC(=O)NC2=O)c2ccc(C3CCN(CC4CCN(c5ccc(C#N)c(S(=O)(=O)N6CCC(Nc7ncc(Cl)cn7)CC6)c5)CC4)CC3)cc21	> 2500 nM
Cn1c(=O)n(C2CCC(=O)NC2=O)c2ccc(C3CCN(CC4CCN(c5cc(S(=O)(=O)N6CCC(Nc7ncc(Cl)cn7)CC6)ccc5C#N)CC4)CC3)cc21 (centres unmarked)	1 to 100 nM
Cn1nc(N2CCC(=O)NC2=O)c2ccc(C3CCN(CC4CCN(c5cc(F)cc(S(=O)(=O)N6CCC(Nc7ncc(C(F)(F)F)cn7)CC6)c5)CC4)CC3)cc21	1 to 100 nM

// field: IC50; key: Cn1nc(N2CCC(=O)NC2=O)c2ccc(C#CCN3CCN(c4cccc(S(=O)(=O)N5CCC(Nc6ncc(Cl)cn6)CC5)c4)CC3)cc21 ; value = 500 to 2500 nM

// field: IC50; key: O=C1CCC(n2c(=O)n(CC3CCN(CC4CCN(c5cccc(S(=O)(=O)N6CCC(Nc7ncc(C(F)(F)F)cn7)CC6)c5)CC4)CC3)c3ccccc32)C(=O)N1 (centres unmarked) ; value = 1 to 100 nM

// field: IC50; key: Cn1nc(N2CCC(=O)NC2=O)c2ccc(C3CCN(Cc4cccc(S(=O)(=O)N5CCC(Nc6ncc(C(F)(F)F)cn6)CC5)c4)CC3)cc21 ; value = 1 to 100 nM
